Listed next: entries and their corresponding OD 450 nm.
Biological target: T1, CEACAM1 antigen (Sino Biological, Inc.) (UniProt P13688 35-428)
T1 construct: Bought antigen, coated on the ELISA plate; construct not described; also called CEACAM1 (CD66a) antigen; CD66a
T1 sequence (looked up): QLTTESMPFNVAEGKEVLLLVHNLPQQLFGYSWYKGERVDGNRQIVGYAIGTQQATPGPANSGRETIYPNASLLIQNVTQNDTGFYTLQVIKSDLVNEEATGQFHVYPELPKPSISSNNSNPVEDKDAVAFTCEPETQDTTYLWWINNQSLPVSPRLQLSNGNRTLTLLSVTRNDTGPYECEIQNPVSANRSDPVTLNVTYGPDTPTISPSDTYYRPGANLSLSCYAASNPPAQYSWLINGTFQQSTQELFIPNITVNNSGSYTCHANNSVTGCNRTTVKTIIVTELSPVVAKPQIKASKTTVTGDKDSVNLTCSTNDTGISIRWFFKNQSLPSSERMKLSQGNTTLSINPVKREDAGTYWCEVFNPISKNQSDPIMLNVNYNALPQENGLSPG
Assay: ELISA, CEACAM1 coated 100 ng/well, antibody at 370.37 ng/ml
measure-name: OD 450 nm

binder	observed
recombinant humanized anti-CD66c antibody Protein ID 2938 (Vk5 + VH7) (antibody, human IgG1, V domains shown, also called hu 2938) VH: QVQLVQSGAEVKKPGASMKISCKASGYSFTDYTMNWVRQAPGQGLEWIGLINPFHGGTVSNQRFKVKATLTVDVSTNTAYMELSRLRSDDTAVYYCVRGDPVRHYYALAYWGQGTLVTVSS VL: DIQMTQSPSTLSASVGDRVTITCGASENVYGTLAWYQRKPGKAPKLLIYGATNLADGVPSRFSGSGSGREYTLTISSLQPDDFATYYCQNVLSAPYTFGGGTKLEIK	0.14 OD 450 nm
recombinant humanized anti-CD66c antibody Protein ID 3043 (Vk8 + VH6) (antibody, V domains shown, also called hu 3043; #71) VH: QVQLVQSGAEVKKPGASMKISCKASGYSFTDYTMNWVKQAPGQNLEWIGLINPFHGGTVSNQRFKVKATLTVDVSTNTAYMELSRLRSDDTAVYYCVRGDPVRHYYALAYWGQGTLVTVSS VL: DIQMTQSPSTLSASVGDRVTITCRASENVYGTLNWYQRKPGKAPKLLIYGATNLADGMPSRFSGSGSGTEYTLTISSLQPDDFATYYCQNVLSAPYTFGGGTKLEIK	0.8 OD 450 nm
recombinant humanized anti-CD66c antibody Protein ID 3058 (Vk8 + VH11) (antibody, human IgG1, V domains shown, also called hu 3058; #86) VH: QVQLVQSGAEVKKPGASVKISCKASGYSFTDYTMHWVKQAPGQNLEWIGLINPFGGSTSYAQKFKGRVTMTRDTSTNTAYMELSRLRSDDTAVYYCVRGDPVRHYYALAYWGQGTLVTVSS VL: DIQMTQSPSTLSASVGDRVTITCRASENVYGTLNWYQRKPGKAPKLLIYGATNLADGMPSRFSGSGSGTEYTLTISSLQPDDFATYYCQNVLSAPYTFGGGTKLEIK	0.12 OD 450 nm
recombinant humanized anti-CD66c antibody Protein ID 3007 (Vk7 + VH6) (antibody, human IgG1, V domains shown, also called hu 3007; #43) VH: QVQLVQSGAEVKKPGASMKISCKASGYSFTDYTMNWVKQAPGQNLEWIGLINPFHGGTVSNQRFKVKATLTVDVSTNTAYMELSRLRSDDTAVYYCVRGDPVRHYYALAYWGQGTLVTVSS VL: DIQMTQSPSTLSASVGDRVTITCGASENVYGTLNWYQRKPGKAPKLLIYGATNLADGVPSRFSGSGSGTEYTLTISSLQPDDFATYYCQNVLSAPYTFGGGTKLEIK	0.92 OD 450 nm
anti-CD66c chimeric antibody 8F5 (antibody, human IgG1, V domains shown, also called chimeric 8F5; chi 8F5) VH: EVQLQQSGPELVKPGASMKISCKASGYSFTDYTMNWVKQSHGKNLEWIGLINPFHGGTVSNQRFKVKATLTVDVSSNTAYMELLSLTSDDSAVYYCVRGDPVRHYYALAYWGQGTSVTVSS VL: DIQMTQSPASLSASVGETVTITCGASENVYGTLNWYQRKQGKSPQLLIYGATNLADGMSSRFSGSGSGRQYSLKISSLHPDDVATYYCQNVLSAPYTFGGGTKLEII	1.13 OD 450 nm
